Cited source for all entries: PubChem BioAssay AID707

# testTarget: Bifunctional epoxide hydrolase 2 (Homo sapiens)
# methodSummary: sEH enzyme activity blockers – biochemical, human sEH, primary screen (AID 707)
# measurementParameters: recombinant human sEH enzymatic activity assay; at 2 µM; active compounds read high
Out of some 91,000 compounds screened, about 310 (0.34%) were called active. For the sample, actives were picked, then their nearest neighbours and some compounds at random.
outcomeMeasure: inhibition (%)
Give bare numbers, in %.

>>> numericreadout("COc1cc(C(=O)N2CCN(C/C=C/c3ccccc3)CC2)cc(OC)c1C")
-12.7
>>> numericreadout("O=C(/C=C/c1ccccc1)N/C(=C/c1ccccc1)C(=O)Nc1ccccc1O")
2.8
>>> numericreadout("C=CCOc1c2ccc(C(=O)N(CC)c3ccc(OC)cc3)cc2nn1C")
10.6
>>> numericreadout("O=[N+]([O-])c1ccccc1NCc1ccc(Cl)cc1")
-1
>>> numericreadout("CCCCNCc1ccc(SC)cc1")
10.8

Provide reported inhibition for each item, in the same order as listed.
1. O=C(/C=C/c1ccc(Cl)cc1Cl)NCc1ccco1
2. Cc1cc2cc3c(N)[nH]nc3nc2cc1C
3. CC1CCN(C(NC(=O)c2ccco2)C(=O)c2ccccc2)CC1 (centres undefined)
4. COc1ccccc1NC(=O)[C@H](COCc1ccccc1)NC(=O)OC(C)(C)C
5. COc1ccc2c(c1)SC(C)CC2=O (centres undefined)
6. CNC(=S)NNC(=O)c1sccc1OCc1ccccc1
7. NC(=O)C1(N2CCCCC2)CCN(C(=S)Nc2ccc(Cl)cc2)CC1

1: 19.3; 2: 4.3; 3: -0.8; 4: -8.8; 5: -11.8; 6: -3.9; 7: 0.6
